Measured Selectivity ratio values are reported for all entries that follow.
procedure.details: Selectivity ratio of Ki/Km for calf thymus thymidylate synthetase to Ki/Km for thymidylate synthetase in mouse Ehrlich ascites tumor cells
Provide a numeric answer; units are not to be included.

Guide cases for Selectivity ratio, answers given:
q: Return reported Selectivity ratio. Input compound: O=c1[nH]c(=O)n([C@H]2C[C@H](O)[C@@H](COP(=O)(O)O)O2)cc1COCc1ccccc1
a: 2

q: Return reported Selectivity ratio. Input compound: O=Cc1cn([C@H]2C[C@H](O)[C@@H](COP(=O)(O)O)O2)c(=O)[nH]c1=O
a: 0.5

q: Return reported Selectivity ratio. Input compound: O=c1[nH]c(=O)n([C@H]2C[C@H](O)[C@@H](COP(=O)(O)O)O2)cc1CC1CO1 (stereo partly drawn)
a: 1

q: Return reported Selectivity ratio. Input compound: COCc1cn([C@H]2C[C@H](O)[C@@H](COP(=O)(O)O)O2)c(=O)[nH]c1=O
a: 0.7

q: Return reported Selectivity ratio. Input compound: CC(=O)c1cn([C@H]2C[C@H](O)[C@@H](COP(=O)(O)O)O2)c(=O)[nH]c1=O
a: 1.5

q: Return reported Selectivity ratio. Input compound: O=c1[nH]c(=O)n([C@H]2C[C@H](O)[C@@H](COP(=O)(O)O)O2)cc1CO
a: 3

q: Return reported Selectivity ratio. Input compound: [N-]=[N+]=NCc1cn([C@H]2C[C@H](O)[C@@H](COP(=O)(O)O)O2)c(=O)[nH]c1=O
a: 1.9

Continuing:
q: Return reported Selectivity ratio. Input compound: C=CCc1cn([C@H]2C[C@H](O)[C@@H](COP(=O)(O)O)O2)c(=O)[nH]c1=O
a: 1.4
